tested on: Enterobacterales; assay: MIC, broth microdilution, CDC/FDA Antibiotic Resistance Isolate Bank (Example 7, Tables 8, 11, 12); assay type: cell-based; conditions: Proteus mirabilis, KUB No. 5653, AR Bank # 156; read-out: MIC
Endpoint: MIC (µg/mL)

Structure	Tested On	Reported Relation	Reported Result
CC(C)(O/N=C(\C(=O)N[C@@H]1C(=O)N2C(C(=O)[O-])=C(C[N+]3(CCNC(=O)c4ccc(O)c(O)c4Cl)CCCC3)CS[C@H]12)c1csc(N)n1)C(=O)O	Enterobacterales	<	0.06
O=C(O)c1cn(C2CC2)c2cc(N3CCNCC3)c(F)cc2c1=O	Enterobacterales	=	4
CO/N=C(\C(=O)N[C@@H]1C(=O)N2C(C(=O)[O-])=C(C[n+]3ccn4ncccc43)CS[C@H]12)c1nsc(N)n1	Enterobacterales	=	0.5
C[C@H]1[C@H](NC(=O)/C(=N\OC(C)(C)C(=O)O)c2csc(N)n2)C(=O)N1S(=O)(=O)O	Enterobacterales	≤	0.03
C[C@H]1COc2c(N3CCN(C)CC3)c(F)cc3c(=O)c(C(=O)O)cn1c23	Enterobacterales	=	2
NCC[C@H](O)C(=O)N[C@@H]1C[C@H](N)[C@@H](O[C@H]2O[C@H](CN)[C@@H](O)[C@H](O)[C@H]2O)[C@H](O)[C@H]1O[C@H]1O[C@H](CO)[C@@H](O)[C@H](N)[C@H]1O	Enterobacterales	=	4
